System: MDAMB-231/U 251
Test: Anti-cancer screen (MTT), MDAMB-231/U 251 cells
Type: cell-based
Details: MDAMB-231/U 251, 48 hours, concentrations tested 0.01-100 μM
Quick reference: IC (TGI) of the listed items.

Compound	Target entity	Unit annotation	Comparator	IC (TGI)
COc1ccc(CNCC(O)COc2cccc3[nH]c4ccccc4c23)c(OC)c1 (racemic)	MDAMB-231/U 251	µM	=	9.8
Cc1csc(NC(=O)CN2CCN(CC(O)COc3cccc4[nH]c5ccccc5c34)CC2)n1 (stereo not drawn)	MDAMB-231/U 251	µM	>	100
OC(CNCc1ccccc1)COc1cccc2[nH]c3ccccc3c12 (stereo not drawn)	MDAMB-231/U 251	µM	=	10
